- Test system: 885724-159-R-J1-PDC KRAS PDC multicell spheroid viability
- Method Notes: Anticancer human tumor 885724-159-R-J1-PDC patient-derived pancreatic adenocarcinoma cell line growth inhibition [KRAS2]; active = viability on the fitted dose curve at most 10% of control; inactive = the rest
- Applied Conditions: second compound 1 µM; first compound 10 µM
Outcomes: active, inactive

Compound	Assay Target	Label
COC(=O)c1ccc2c(C(=Nc3ccc(N(C)C(=O)CN4CCN(C)CC4)cc3)c3ccccc3)c(O)[nH]c2c1 + CC1OCC2(CCN(c3cnc(Sc4ccnc(N)c4Cl)c(N)n3)CC2)C1N	885724-159-R-J1-PDC KRAS PDC multicell spheroid viability	active
O=C(c1cc(Cc2n[nH]c(=O)c3ccccc23)ccc1F)N1CCN(C(=O)C2CC2)CC1 + COc1cc2nc(C)nc(NC(C)c3cc(N)cc(C(F)(F)F)c3)c2cc1OC1CCOC1	885724-159-R-J1-PDC KRAS PDC multicell spheroid viability	inactive
COC(=O)c1ccc2c(C(=Nc3ccc(N(C)C(=O)CN4CCN(C)CC4)cc3)c3ccccc3)c(O)[nH]c2c1 + C=CC(=O)N1CCN(c2nc(=O)n(-c3c(C)ccnc3C(C)C)c3nc(-c4c(O)cccc4F)c(F)cc23)C(C)C1	885724-159-R-J1-PDC KRAS PDC multicell spheroid viability	active
O=C(c1cc(Cc2n[nH]c(=O)c3ccccc23)ccc1F)N1CCN(C(=O)C2CC2)CC1 + CNCc1ccccc1-c1csc(C(C)Nc2nc(C)nc3cc(OC)c(OC)cc23)c1	885724-159-R-J1-PDC KRAS PDC multicell spheroid viability	inactive
COc1cc2nccc(Oc3ccc(NC(=O)C4(C(=O)Nc5ccc(F)cc5)CC4)cc3)c2cc1OC + C=CC(=O)N1CCN(c2nc(OCC3CCCN3C)nc3c2CCN(c2cccc4cccc(C)c24)C3)CC1CC#N	885724-159-R-J1-PDC KRAS PDC multicell spheroid viability	inactive

* * *

- System: 885724-159-R-J1-PDC KRAS PDC multicell spheroid viability
- Method Notes: Anticancer human tumor 885724-159-R-J1-PDC cell line growth inhibition [KRAS2];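 note: spheroids exposed to agents for 7 days before readout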
- Applied Conditions: curve of first compound; second compound 10 µM
pIC50: −log10 of the molar value.

Compound	Limit Sign	pIC50
O=C(c1cc(Cc2n[nH]c(=O)c3ccccc23)ccc1F)N1CCN(C(=O)C2CC2)CC1 + CC1OCC2(CCN(c3cnc(Sc4ccnc(N)c4Cl)c(N)n3)CC2)C1N	<	5.00
CC1(C)CCC(CN2CCN(c3ccc(C(=O)NS(=O)(=O)c4ccc(NCC5CCOCC5)c([N+](=O)[O-])c4)c(Oc4cnc5[nH]ccc5c4)c3)CC2)=C(c2ccc(Cl)cc2)C1 + CC1OCC2(CCN(c3cnc(Sc4ccnc(N)c4Cl)c(N)n3)CC2)C1N	=	5.92
CCNC(=O)CC1N=C(c2ccc(Cl)cc2)c2cc(OC)ccc2-n2c(C)nnc21 (stereo not given) + CNCc1ccccc1-c1csc(C(C)Nc2nc(C)nc3cc(OC)c(OC)cc23)c1	>	7.50
CN(C)C/C=C/C(=O)Nc1cc2c(Nc3ccc(F)c(Cl)c3)ncnc2cc1O[C@H]1CCOC1 + COc1cc2nc(C)nc(NC(C)c3cc(N)cc(C(F)(F)F)c3)c2cc1OC1CCOC1	<	7.00
CC(=O)Nc1cccc(-n2c(=O)n(C3CC3)c(=O)c3c(Nc4ccc(I)cc4F)n(C)c(=O)c(C)c32)c1 + CC1OCC2(CCN(c3cnc(Sc4ccnc(N)c4Cl)c(N)n3)CC2)C1N	=	9.97
